Recorded values, source the METLIN SMRT retention time set (Domingo-Almenara et al. 2019).

# assayName: gradient 5% acetonitrile 3 min, to 50% in 2 min, to 85% in 15 min, held 3 min, 100 µL/min
# cond: column: Zorbax Extend-C18 2.1 x 50 mm; eluents: water / acetonitrile, 0.1% formic acid
valueType: RP-LC retention time (s)

Guide cases for RP-LC retention time, answers given:
Cc1cc(-c2nnc(C3CC3)o2)c(C)n1CC(=O)NCc1cc(F)cc(F)c1 = 813
Cc1ccc(S(=O)(=O)N2C[C@H]3CN(C(=O)Nc4cccc(C)c4)C[C@@H](C2)O3)cc1 = 852
Cc1ccc(C)c(-c2csc(Cc3nc(-c4ccc(F)cc4)no3)n2)c1 = 1300
COc1cc(-c2noc(Cn3cnc4c(oc5ccccc54)c3=O)n2)cc(OC)c1OC = 857
CC(C)NC(=O)c1nc2ccccc2n(C)c1=O = 659
Cc1c(-c2noc(-c3ccc(F)cc3)n2)nnn1Cc1ccc(F)cc1 = 1060
COC(=O)C1=CN(C2CC2)c2cc(N3CCN(c4ccc(OC)cc4)CC3)c(F)cc2S1(=O)=O = 856
CS(=O)(=O)NCC(c1ccsc1)N1CCc2ccccc2C1 (centres undefined) = 563

[A] CCCS(=O)(=O)N1CCCC(Cn2cc(COc3ccc4c(c3)CCC4)nn2)C1 (centres undefined)
[B] CS(=O)(=O)N[C@H]1C[C@@H]2C[C@H]1CN2C(=O)c1ccc(C(F)(F)F)s1
Lookup: // select label with min value of measured RP-LC retention time from [ A , B ] // return label of chosen record
Found: B
(B: 663 s, A: 997 s)

[1] CS(=O)(=O)N1CC(F)(F)C[C@H]1c1nc(-c2ccncc2)no1
[2] Cc1ccc(Sc2nccnc2N2CCCC(C(=O)Nc3ccc(C)cc3C)C2)cc1 (centres undefined)
Lookup: // select label with min value of measured RP-LC retention time from [ 1 , 2 ] // return label of chosen record
Found: 1
(1: 693 s, 2: 1150 s)

----------
# assayName: gradient 5% acetonitrile 3 min, to 50% in 2 min, to 85% in 15 min, held 3 min, 100 µL/min
# cond: column: Zorbax Extend-C18 2.1 x 50 mm; eluents: water / acetonitrile, 0.1% formic acid
valueType: RP-LC retention time (s)

CN(Cc1ccccc1)C(=O)CCSC1CCc2ccccc2NC1=O (centres undefined) = 798
O=C1CCC(C(=O)N2CCCn3ccnc3C2C2CCCC2)=NN1 (centres undefined) = 564
O=C(c1ccc2c(c1)OCO2)N1CCc2cc(-c3csc(C4CC4)n3)ccc21 = 1090
O=C(NCc1ccccc1F)c1ccc(CN2CCN(Cc3ccccc3)C(=O)C2=O)cc1 = 770
O=C(Nc1cc(F)cc(F)c1)NC1CCN(c2ccc(F)cc2)C1=O (centres undefined) = 895
CCS(=O)(=O)N1CCCc2cc(C(=O)NCCC3=CCCCC3)ccc21 = 987

[P] O=C(Nc1cccc(C(F)(F)F)c1)N1CC(c2nc(-c3cccs3)no2)C1
[Q] O=C(CN1CCN(c2ccccn2)CC1)Nc1ccc(F)c(F)c1
Lookup: // select label with min value of measured RP-LC retention time from [ P , Q ] // return label of chosen record
Found: Q

[P] CN(C(=O)CSc1nnc(-c2cn(C)nc2-c2ccccc2)n1C)c1ccccc1
[Q] COc1c(C(=O)NCc2cc(F)cc(F)c2)sc2ccc(F)cc12
Lookup: Between P and Q , whose recorded RP-LC retention time is greater? // return label of chosen record
Found: Q
(Q: 1070 s, P: 712 s)

[P] O=C(CCn1nnc2cc(-c3noc(Cc4ccc(Cl)cc4)n3)ccc21)N1CCCC1
[Q] COc1ccc2nc(N3CCC(C(=O)N4CCN(c5ccccn5)CC4)CC3)sc2c1
Lookup: // select label with min value of measured RP-LC retention time from [ P , Q ] // return label of chosen record
Found: Q
(Q: 578 s, P: 921 s)

----------
# assayName: gradient 5% acetonitrile 3 min, to 50% in 2 min, to 85% in 15 min, held 3 min, 100 µL/min
# cond: column: Zorbax Extend-C18 2.1 x 50 mm; eluents: water / acetonitrile, 0.1% formic acid
valueType: RP-LC retention time (s)

COc1ccc(-c2nnc(-c3ccc(C)c(S(N)(=O)=O)c3)o2)cc1OC = 731
COc1ccc(-c2c(C)noc2NC(C)=O)cc1S(=O)(=O)NCc1ccc(C)o1 = 714
CCc1cccc(NC(=O)C2(C)Oc3cccnc3NC2=O)c1 (stereo unspecified) = 704
CC(C)n1cnc(S(=O)(=O)N2CCCC(C(=O)Nc3ccccc3)C2)c1 (stereo unspecified) = 768
O=C(O)CCC1CCCN(S(=O)(=O)c2ccccc2)C1 (stereo unspecified) = 770

[P] CCN1CCCn2cc(S(=O)(=O)NCc3ccc(C)o3)cc2C1=O
[Q] COc1ccccc1NS(=O)(=O)c1c(C)nn(-c2ccc(-c3ccc(C)cc3)nn2)c1C
Lookup: // select label with min value of measured RP-LC retention time from [ P , Q ] // return label of chosen record
Found: P

[P] NC(=O)CSc1nnc(-c2ccncc2)o1
[Q] CCc1noc(NC(C)=O)c1-c1ccc(OC)c(S(=O)(=O)N2CCCCC2)c1
[R] CCOC(=O)c1c(C)oc2nc(C)nc(NC3CCCc4ccccc43)c12 (stereo unspecified)
Lookup: Arrange the 3 entries by RP-LC retention time so the values rise. # answer = labels listed in requested order
Found: P, Q, R
(P: 486 s, Q: 758 s, R: 1130 s)

----------
# assayName: gradient 5% acetonitrile 3 min, to 50% in 2 min, to 85% in 15 min, held 3 min, 100 µL/min
# cond: column: Zorbax Extend-C18 2.1 x 50 mm; eluents: water / acetonitrile, 0.1% formic acid
valueType: RP-LC retention time (s)

Guide cases for RP-LC retention time, answers given:
O=S(=O)(c1ccccc1F)N1CCC(c2noc(-c3ccc(F)cc3)n2)CC1 = 1110
O=C(NCc1cccnc1)C1CCCN(c2ccc(Sc3ccc(Br)cc3)nn2)C1 (centres undefined) = 653
CCOc1cccc(C2CC(c3ccc(Br)cc3)=NC3(CCN(C)CC3)N2)c1O (centres undefined) = 649
CSc1ccc(CNC(=O)C2CCCN(c3ccc(N4CCOCC4)nn3)C2)cc1 (centres undefined) = 653
Cn1cc(C2=CCN(C(=O)c3cc(F)cc(F)c3)CC2)c2cccnc21 = 846

[a] CN1CCN2c3ncccc3Cc3ccccc3[C@@H]2C1
[b] CCOc1ccc(-n2ccn3cc(-c4cc(C)ccc4C)nc3c2=O)cc1
Lookup: Between a and b , whose recorded RP-LC retention time is greater? // return label of chosen record
Found: b

----------
# assayName: gradient 5% acetonitrile 3 min, to 50% in 2 min, to 85% in 15 min, held 3 min, 100 µL/min
# cond: column: Zorbax Extend-C18 2.1 x 50 mm; eluents: water / acetonitrile, 0.1% formic acid
valueType: RP-LC retention time (s)

Guide cases for RP-LC retention time, answers given:
CCc1cnc2c(c1OC)c(=O)n(Cc1ccccc1F)c(=O)n2C = 970
Cn1cc(CN2CCC(C(=O)NC3CCCC3)CC2)c2cc(Cl)ccc21 = 692
N#CC(C#N)=Cc1ccc(O)c(O)c1 = 841

[1] O=C(NCc1csc(C2CCN(C(=O)COc3ccccc3)CC2)n1)C1CC1
[2] CCOc1cccc(C2c3[nH]c4ccccc4c3CCN2C(=O)c2ccco2)c1 (stereo not given)
Lookup: Between 1 and 2 , whose recorded RP-LC retention time is greater? // return label of chosen record
Found: 2

----------
# assayName: gradient 5% acetonitrile 3 min, to 50% in 2 min, to 85% in 15 min, held 3 min, 100 µL/min
# cond: column: Zorbax Extend-C18 2.1 x 50 mm; eluents: water / acetonitrile, 0.1% formic acid
valueType: RP-LC retention time (s)

Guide cases for RP-LC retention time, answers given:
CCOC(=O)c1nc(N(C)c2ccccc2F)c2ccccc2n1 = 931
O=C(C1CCCN1c1nnc(N2CCCC2=O)s1)N1CCN(c2ccccn2)CC1 (stereo not given) = 547
COc1ccc(Cl)cc1NC(=O)NCC(c1cccnc1)c1c[nH]c2ccccc12 (stereo not given) = 728

[a] CC(C)CN1CCn2cc(S(=O)(=O)NCc3cccc(F)c3)cc2C1=O
[b] CCc1sc(NC(=O)c2cc3c([nH]c2=O)CCCC3=O)nc1-c1ccc2c(c1)CCCC2
Lookup: Between a and b , whose recorded RP-LC retention time is greater? // return label of chosen record
Found: b
(b: 1170 s, a: 813 s)

----------
# assayName: gradient 5% acetonitrile 3 min, to 50% in 2 min, to 85% in 15 min, held 3 min, 100 µL/min
# cond: column: Zorbax Extend-C18 2.1 x 50 mm; eluents: water / acetonitrile, 0.1% formic acid
valueType: RP-LC retention time (s)

Guide cases for RP-LC retention time, answers given:
Cc1ccc2c(Nc3ccc(Cl)cc3)c(-c3nc(C)no3)cnc2n1 = 785
COc1ccc(S(=O)(=O)N2CCCC2)cc1C(=O)Nc1cccc2cnccc12 = 598
O=C(Cn1c(=O)oc2ccccc21)N1CCC(c2noc(-c3ccncc3)n2)C1 (centres undefined) = 712
Cc1nn2c(CNS(=O)(=O)c3cccc(Cl)c3C)c(-c3ccccc3)nc2s1 = 942

[P] CCOC(=O)c1nc(Nc2ccc(OCC(C)C)cc2)c2ccccc2n1
[Q] Cn1c(=O)c2c(ncn2CC(=O)OCc2cc(-c3cccs3)on2)n(C)c1=O
Lookup: Between P and Q , whose recorded RP-LC retention time is greater? // return label of chosen record
Found: P
(P: 998 s, Q: 697 s)
